reported_endpoint: melting point

COc1ccc([N+](=O)[O-])cc1NC(=O)c1ccc2ccccc2c1O = 215 to 218 °C
O=C(Nc1ccc(F)cc1F)c1ccc2ccccc2c1O = 185 to 187 °C
COc1ccc(OC)c(NC(=O)c2ccc3ccccc3c2O)c1 = 116 to 119 °C
O=C(Nc1ccc(F)c(F)c1)c1ccc2ccccc2c1O = 153 to 156 °C

Enquiry: For `O=C(Nc1c(F)c(F)c(F)c(F)c1F)c1ccc2ccccc2c1O` , write its melting point.
Return: 230 to 234 °C

Enquiry: For `Cc1cc(C)c(NC(=O)c2ccc3ccccc3c2O)c(C)c1` , write its melting point.
Return: 160 to 163 °C

Enquiry: For `O=C(Nc1cc(F)c(C(F)(F)F)cc1F)c1ccc2ccccc2c1O` , write its melting point.
Return: 229 to 231 °C

Enquiry: For `O=C(Nc1ccc(C(F)(F)F)cc1Br)c1ccc2ccccc2c1O` , write its melting point.
Return: 168 to 170 °C

Enquiry: For `O=C(Nc1cc(F)c(F)cc1F)c1ccc2ccccc2c1O` , write its melting point.
Return: 201 to 204 °C

Enquiry: For `O=C(Nc1c(Br)cc(F)c(Cl)c1Br)c1ccc2ccccc2c1O` , write its melting point.
Return: 244 to 247 °C

Enquiry: For `O=C(Nc1ccc(Br)cc1F)c1ccc2ccccc2c1O` , write its melting point.
Return: 172 to 174 °C

Enquiry: For `O=C(Nc1ccc(Cl)cc1F)c1ccc2ccccc2c1O` , write its melting point.
Return: 163 to 165 °C

Enquiry: For `O=C(Nc1ccc(Br)c(C(F)(F)F)c1)c1ccc2ccccc2c1O` , write its melting point.
Return: 172 to 173 °C

Enquiry: For `O=C(Nc1ccc(F)cc1Cl)c1ccc2ccccc2c1O` , write its melting point.
Return: 162 to 166 °C

Enquiry: For `O=C(Nc1cc(F)ccc1Br)c1ccc2ccccc2c1O` , write its melting point.
Return: 187 to 190 °C

Enquiry: For `COc1cc([N+](=O)[O-])ccc1NC(=O)c1ccc2ccccc2c1O` , write its melting point.
Return: 250 to 253 °C

Hey, just so you know, these numbers are from paper PMC6476888.
